Values from the supplement of paper PMC10307832

- System: NCI-H838
- protocol notes: relative viability (nuclei count vs DMSO), 5 days (fraction); higher = more cells survive
- assay conditions: first compound 8 µM
reported endpoint: relative viability

1) O=c1cc(-c2cccc3c2Sc2ccccc2S3)oc(N2CCOCC2)c1 + O=C(CCCCCCC(=O)Nc1ccccc1)NO [Vorinostat] (partner 1 µM); 0.535
2) O=c1cc(-c2cccc3c2Sc2ccccc2S3)oc(N2CCOCC2)c1 + CS(=O)(=O)CCNCc1ccc(-c2ccc3ncnc(Nc4ccc(OCc5cccc(F)c5)c(Cl)c4)c3c2)o1 [Lapatinib] (partner 2 µM); 0.953
3) O=c1cc(-c2cccc3c2Sc2ccccc2S3)oc(N2CCOCC2)c1 + Cc1nc(NC(=O)N2CCC[C@H]2C(N)=O)sc1-c1ccnc(C(C)(C)C(F)(F)F)c1 [Alpelisib] (partner 2 µM); 1.06
4) O=c1cc(-c2cccc3c2Sc2ccccc2S3)oc(N2CCOCC2)c1 + CC1(C)CCC(c2ccc(Cl)cc2)=C(CN2CCN(c3ccc(C(=O)NS(=O)(=O)c4ccc(N[C@H](CCN5CCOCC5)CSc5ccccc5)c(S(=O)(=O)C(F)(F)F)c4)cc3)CC2)C1 [Navitoclax] (partner 0.5 µM); 1.09
5) O=c1cc(-c2cccc3c2Sc2ccccc2S3)oc(N2CCOCC2)c1 + Cc1nc(Nc2ncc(C(=O)Nc3c(C)cccc3Cl)s2)cc(N2CCN(CCO)CC2)n1 [Dasatinib] (partner 0.075 µM); 0.273
6) O=c1cc(-c2cccc3c2Sc2ccccc2S3)oc(N2CCOCC2)c1 + Nc1nc2[nH]cc(CCc3ccc(C(=O)N[C@@H](CCC(=O)O)C(=O)O)cc3)c2c(=O)[nH]1 [Pemetrexed] (partner 0.2 µM); 0.226
7) O=c1cc(-c2cccc3c2Sc2ccccc2S3)oc(N2CCOCC2)c1 + C[C@@H](Oc1cc(-c2cnn(C3CCNCC3)c2)cnc1N)c1c(Cl)ccc(F)c1Cl [Crizotinib] (partner 1 µM); 0.816
8) O=c1cc(-c2cccc3c2Sc2ccccc2S3)oc(N2CCOCC2)c1 + O=C(c1cc(Cc2n[nH]c(=O)c3ccccc23)ccc1F)N1CCN(C(=O)C2CC2)CC1 [Olaparib] (partner 8 µM); 0.546
